These data points were gathered from paper PMC8708751.

# measured-on: EphB3 kinase (Homo sapiens)
# Construct: purchased Reaction Biology Co. (Kinase HotSpot service)
# assay-method-text: EphB3 kinase inhibition assay (HotSpot)
# Assay type: biochemical
# conditions-used: EphB3 kinase, 10 µM compound, 10 µM ATP; read-out: Average % Enzyme Inhibition at 10 µM (Relative to DMSO Control)
quantity-measured: inhibition at 10 µM (%)

NS(=O)(=O)c1cccc(Nc2ncnc3ccc(-c4cccnc4)cc23)c1	23.5

I: NS(=O)(=O)c1ccc(Nc2ncnc3ccc(-c4cccnc4)cc23)cc1
II: NS(=O)(=O)c1cccc(Nc2ncnc3cc(-c4cccc(CN5CCOCC5)c4)ccc23)c1
Query block: // select label with min value of measured inhibition at 10 µM from [ I , II ] I would appreciate it if you answered with the label of your choice.
Result block: II
(II: -21.4%, I: 25.8%)

----------
# measured-on: EphB3 kinase (Homo sapiens)
# Construct: purchased Reaction Biology Co. (Kinase HotSpot service)
# assay-method-text: EphB3 kinase inhibition assay (HotSpot)
# Type: biochemical
# conditions-used: EphB3 kinase, dose dependent assay; read-out: IC50
quantity-measured: pIC50
Quick note: pIC50 means taking -log10 of the concentration in moles per liter.

Query block: # query: pIC50 of entry "NS(=O)(=O)c1ccc(Nc2ncnc3ccc(-c4cccc(O)c4)cc23)cc1"
Result block: 5.98

----------
# measured-on: EGFR kinase (Homo sapiens, UniProt P00533)
# Construct: purchased Reaction Biology Co. (Kinase HotSpot service)
# Sequence (P00533 25-1210): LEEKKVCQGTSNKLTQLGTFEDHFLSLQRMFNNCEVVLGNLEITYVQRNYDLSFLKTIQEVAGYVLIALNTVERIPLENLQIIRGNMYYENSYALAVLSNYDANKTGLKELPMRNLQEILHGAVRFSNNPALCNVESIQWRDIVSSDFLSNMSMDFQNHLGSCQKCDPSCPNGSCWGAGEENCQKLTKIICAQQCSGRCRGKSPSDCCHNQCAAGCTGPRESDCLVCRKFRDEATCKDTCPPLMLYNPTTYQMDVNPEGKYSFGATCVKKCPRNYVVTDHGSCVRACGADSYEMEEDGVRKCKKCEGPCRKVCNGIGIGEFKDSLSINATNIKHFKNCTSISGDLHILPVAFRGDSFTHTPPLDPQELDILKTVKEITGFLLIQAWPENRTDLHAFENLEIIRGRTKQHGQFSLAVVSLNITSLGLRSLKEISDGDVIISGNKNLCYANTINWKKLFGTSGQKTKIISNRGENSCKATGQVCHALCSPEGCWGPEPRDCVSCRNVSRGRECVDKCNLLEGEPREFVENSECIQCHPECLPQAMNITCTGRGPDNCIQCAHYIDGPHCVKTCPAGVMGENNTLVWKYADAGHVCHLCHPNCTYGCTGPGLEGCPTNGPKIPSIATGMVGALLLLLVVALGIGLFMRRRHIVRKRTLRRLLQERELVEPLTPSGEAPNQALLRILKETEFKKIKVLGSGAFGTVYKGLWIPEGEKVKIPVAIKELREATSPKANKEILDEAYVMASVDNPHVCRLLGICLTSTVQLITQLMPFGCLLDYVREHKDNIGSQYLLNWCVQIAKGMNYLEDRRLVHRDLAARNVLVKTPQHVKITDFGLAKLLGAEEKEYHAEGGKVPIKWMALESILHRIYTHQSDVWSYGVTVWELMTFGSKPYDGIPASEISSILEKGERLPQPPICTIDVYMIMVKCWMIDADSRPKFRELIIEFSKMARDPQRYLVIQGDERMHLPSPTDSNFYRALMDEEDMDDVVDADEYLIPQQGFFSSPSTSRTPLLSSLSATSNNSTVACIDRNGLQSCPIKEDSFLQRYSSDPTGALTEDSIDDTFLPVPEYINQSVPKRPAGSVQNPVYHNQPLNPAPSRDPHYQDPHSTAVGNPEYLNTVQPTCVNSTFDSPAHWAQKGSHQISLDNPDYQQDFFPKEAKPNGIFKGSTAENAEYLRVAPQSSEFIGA
# assay-method-text: EGFR kinase inhibition assay (HotSpot)
# Type: biochemical
# conditions-used: EGFR kinase, dose dependent assay; read-out: IC50
quantity-measured: IC50 (nM)

1: NS(=O)(=O)c1cccc(Nc2ncnc3cc(-c4cccc(CN5CCOCC5)c4)ccc23)c1 [Compound 4e]
2: NS(=O)(=O)c1ccc(Nc2ncnc3ccc(-c4cccc(O)c4)cc23)cc1 [Compound 4c]
3: NS(=O)(=O)c1ccc(Nc2ncnc3cc(-c4ccc(CN5CCOCC5)cc4)ccc23)cc1 [Compound 4d]
Query block: Which order do these items take when sorted by rising IC50? List them. Lab note: record answer as labels in requested order.
Result block: 1, 3, 2
(1: 1060 nM, 3: 2760 nM, 2: 8040 nM)

----------
# measured-on: EphB3 kinase (Homo sapiens, UniProt P54753)
# Construct: purchased Reaction Biology Co. (Kinase HotSpot service)
# Sequence (P54753 34-998): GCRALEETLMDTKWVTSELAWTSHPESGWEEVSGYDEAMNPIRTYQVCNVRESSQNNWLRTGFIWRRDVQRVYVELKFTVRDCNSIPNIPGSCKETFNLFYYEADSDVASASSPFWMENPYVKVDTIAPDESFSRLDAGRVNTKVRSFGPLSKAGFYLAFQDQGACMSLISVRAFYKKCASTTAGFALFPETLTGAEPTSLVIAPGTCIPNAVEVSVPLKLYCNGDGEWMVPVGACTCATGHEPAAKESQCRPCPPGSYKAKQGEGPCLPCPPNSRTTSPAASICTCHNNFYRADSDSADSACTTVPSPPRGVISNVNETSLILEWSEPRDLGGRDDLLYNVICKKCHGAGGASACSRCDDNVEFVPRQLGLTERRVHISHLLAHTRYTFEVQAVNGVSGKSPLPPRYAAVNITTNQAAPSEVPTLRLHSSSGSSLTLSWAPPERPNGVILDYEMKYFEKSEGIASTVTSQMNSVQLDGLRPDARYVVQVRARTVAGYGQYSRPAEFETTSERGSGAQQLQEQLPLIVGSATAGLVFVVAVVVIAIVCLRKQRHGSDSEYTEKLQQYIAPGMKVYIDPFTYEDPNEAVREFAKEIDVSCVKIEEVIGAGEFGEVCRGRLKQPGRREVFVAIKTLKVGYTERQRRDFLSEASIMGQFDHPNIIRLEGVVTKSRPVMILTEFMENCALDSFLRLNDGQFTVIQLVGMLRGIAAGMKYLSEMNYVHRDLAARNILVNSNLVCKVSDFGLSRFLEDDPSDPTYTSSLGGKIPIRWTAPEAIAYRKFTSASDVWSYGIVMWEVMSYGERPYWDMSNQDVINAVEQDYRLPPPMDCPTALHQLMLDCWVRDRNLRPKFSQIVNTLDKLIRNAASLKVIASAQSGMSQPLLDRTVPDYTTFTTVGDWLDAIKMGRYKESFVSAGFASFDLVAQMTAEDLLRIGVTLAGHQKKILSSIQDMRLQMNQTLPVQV
# assay-method-text: EphB3 kinase inhibition assay (HotSpot)
# Format: biochemical
# conditions-used: EphB3 kinase, 10 µM compound, 10 µM ATP; read-out: Average % Enzyme Inhibition at 10 µM (Relative to DMSO Control)
quantity-measured: inhibition at 10 µM (%)

NS(=O)(=O)c1ccc(Nc2ncnc3ccc(Br)cc23)cc1 [Compound 3a]	27
NS(=O)(=O)c1ccc(Nc2ncnc3cc(-c4ccc(CN5CCOCC5)cc4)ccc23)cc1 [Compound 4d]	18.9
NS(=O)(=O)c1ccc(Nc2ncnc3ccc(-c4ccc(C=O)o4)cc23)cc1 [Compound 4b]	26.7
